The measured values listed here are drawn from paper PMC9863004.

# system: Aβ amyloid plaques (amyloid β) (Homo sapiens)
# Construct: aggregated Aβ plaques in postmortem human AD brain slices
# Sequence (P05067 18-770): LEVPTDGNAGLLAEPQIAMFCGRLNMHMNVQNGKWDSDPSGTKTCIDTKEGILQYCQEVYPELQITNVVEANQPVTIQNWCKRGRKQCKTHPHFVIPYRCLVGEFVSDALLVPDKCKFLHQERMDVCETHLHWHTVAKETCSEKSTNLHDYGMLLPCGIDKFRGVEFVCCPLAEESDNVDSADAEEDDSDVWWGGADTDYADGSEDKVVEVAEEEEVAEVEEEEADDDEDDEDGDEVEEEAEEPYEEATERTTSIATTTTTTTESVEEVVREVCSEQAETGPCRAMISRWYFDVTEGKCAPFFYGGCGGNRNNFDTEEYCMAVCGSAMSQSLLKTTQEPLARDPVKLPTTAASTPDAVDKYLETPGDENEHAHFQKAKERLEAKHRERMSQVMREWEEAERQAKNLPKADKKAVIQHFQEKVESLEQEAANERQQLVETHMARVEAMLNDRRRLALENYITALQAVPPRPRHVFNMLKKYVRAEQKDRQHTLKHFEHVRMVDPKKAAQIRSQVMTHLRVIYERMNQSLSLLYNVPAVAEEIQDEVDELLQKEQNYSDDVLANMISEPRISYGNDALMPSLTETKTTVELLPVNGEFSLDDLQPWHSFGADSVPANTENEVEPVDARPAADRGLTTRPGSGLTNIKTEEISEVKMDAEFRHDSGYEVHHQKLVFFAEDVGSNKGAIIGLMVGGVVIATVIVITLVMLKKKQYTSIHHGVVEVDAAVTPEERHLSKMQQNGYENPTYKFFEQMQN
# run.description: autoradiographic radioligand competition with […]IBETA in human AD brain slices; direct [[…]I]IAZA binding
pKi: −log10 of the molar value.

# smiles, pKi
measured = [
    ("CN(C)c1ccc(N=Nc2ccc(I)cc2)cc1", 7.96),
]
